- target.desc: 5HT2A(rat) (Rattus norvegicus)
- Sequence (P14842 whole entry): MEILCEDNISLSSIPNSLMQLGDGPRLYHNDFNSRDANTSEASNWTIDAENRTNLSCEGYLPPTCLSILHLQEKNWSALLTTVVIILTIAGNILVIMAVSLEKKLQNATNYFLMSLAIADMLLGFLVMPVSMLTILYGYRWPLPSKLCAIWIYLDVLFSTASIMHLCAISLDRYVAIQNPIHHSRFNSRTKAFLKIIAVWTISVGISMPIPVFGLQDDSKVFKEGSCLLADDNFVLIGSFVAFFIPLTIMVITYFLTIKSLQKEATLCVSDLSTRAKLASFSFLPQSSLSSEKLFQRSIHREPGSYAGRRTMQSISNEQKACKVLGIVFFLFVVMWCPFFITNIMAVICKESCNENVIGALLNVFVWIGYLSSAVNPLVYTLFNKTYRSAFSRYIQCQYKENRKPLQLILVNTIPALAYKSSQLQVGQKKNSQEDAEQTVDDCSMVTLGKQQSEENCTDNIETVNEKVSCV
- experimental.details: 5HT2 Functional Assay: [Ca2+]i Mobilization (FLIPR, A7r5 cells)
- assay.conditions: [Ca2+]i mobilization, rat vascular smooth muscle cells A7r5
pEC50: −log10 of the molar value. Where a name gives a salt, the structure may show the parent alone.
# pEC50 per entry
recorded.endpoint: pEC50

> print(dat)
                                    compound                     target.desc  recorded.endpoint  experimental.result
 1  C[C@H](N)Cn1ncc2ccc3oc(CNC(=O)c4cccnc4)cc3c21  5HT2A(rat) (Rattus norvegicus)              pEC50                 7.66
 2  CC(=O)NCCCNC(=O)c1cc2c(ccc3cnn(C[C@H](C)N)c32)o1  5HT2A(rat) (Rattus norvegicus)              pEC50                 7.43
 3      C[C@H](N)Cn1ncc2ccc3oc(C(N)=O)cc3c21  5HT2A(rat) (Rattus norvegicus)              pEC50                 6.80
 4  C[C@H](N)Cn1ncc2ccc3oc(CN4CCN(c5ccccn5)CC4)cc3c21  5HT2A(rat) (Rattus norvegicus)              pEC50                 6.85
 5  C[C@H](N)Cn1ncc2ccc3oc(C(=O)NCCc4cnc[nH]4)cc3c21.O=C(O)/C=C/C(=O)O [Example 6, fumarate]  5HT2A(rat) (Rattus norvegicus)              pEC50                 7.24
 6  CCOC(=O)c1cc2c(ccc3cnn(C[C@H](C)N)c32)o1.O=C(O)/C=C/C(=O)O [Example 1, fumarate]  5HT2A(rat) (Rattus norvegicus)              pEC50                 7.20
 7  CC(O)CNC(=O)c1cc2c(ccc3cnn(C[C@H](C)N)c32)o1 (some centres unmarked)  5HT2A(rat) (Rattus norvegicus)              pEC50                 7.57
 8  C[C@H](N)Cn1ncc2ccc3oc(C(=O)NCCO)cc3c21 [Example 5, fumarate]  5HT2A(rat) (Rattus norvegicus)              pEC50                 7.26
 9  COCCNC(=O)c1cc2c(ccc3cnn(C[C@H](C)N)c32)o1  5HT2A(rat) (Rattus norvegicus)              pEC50                 7.27
10  CNC(=O)Cc1cc2c(ccc3cnn(C[C@H](C)N)c32)o1  5HT2A(rat) (Rattus norvegicus)              pEC50                 7.55
11  Cc1noc(-c2cc3c(ccc4cnn(C[C@H](C)N)c43)o2)n1  5HT2A(rat) (Rattus norvegicus)              pEC50                 6.55
12  CNC(=O)c1cc2c(ccc3cnn(C[C@H](C)N)c32)o1.O=C(O)/C=C/C(=O)O [Example 4, fumarate]  5HT2A(rat) (Rattus norvegicus)              pEC50                 7.27
13  CCNC(=O)NCc1cc2c(ccc3cnn(C[C@H](C)N)c32)o1  5HT2A(rat) (Rattus norvegicus)              pEC50                 7.64
14  C[C@H](N)Cn1ncc2ccc3oc(C(=O)NCCCN4CCCC4=O)cc3c21  5HT2A(rat) (Rattus norvegicus)              pEC50                 7.14
15  C[C@H](N)Cn1ncc2ccc3oc(C(=O)NCC4(O)CC4)cc3c21  5HT2A(rat) (Rattus norvegicus)              pEC50                 7.82
16  Cc1ccc(CNC(=O)c2cc3c(ccc4cnn(C[C@H](C)N)c43)o2)o1  5HT2A(rat) (Rattus norvegicus)              pEC50                 6.74
17  C[C@H](N)Cn1ncc2ccc3oc(C(=O)NCC(C)(C)CO)cc3c21  5HT2A(rat) (Rattus norvegicus)              pEC50                 7.13
18          C[C@H](N)Cn1ncc2ccc3oc(CO)cc3c21  5HT2A(rat) (Rattus norvegicus)              pEC50                 7.74
19  CC(=O)Nc1ccc(S(=O)(=O)NCc2cc3c(ccc4cnn(C[C@H](C)N)c43)o2)cc1  5HT2A(rat) (Rattus norvegicus)              pEC50                 6.88
20  C[C@H](N)Cn1ncc2ccc3oc(C(=O)NCCN4CCOCC4)cc3c21  5HT2A(rat) (Rattus norvegicus)              pEC50                 6.96
